assay-name: Viability Counterscreen for Confirmatory qHTS for Inhibitors of ATXN expression; note: nearly all actives have a fitted effect of over 50% in size; note: potency is the fitted concentration of half-maximal effect
assay-setup: HEK-293 ATXN2-luc cells viability, CellTiter-Fluor, 24 h
Among all 2,100 compounds or so, about 260 (12%) were called active. Not shown: some 58% with an inconclusive outcome. This is one part of the list.
property-name: Potency

Study these solved cases before continuing.
The recorded Potency for entry `CCOc1cc(/C=N/Nc2cc(C)nc(-n3nc(C)cc3C)n2)ccc1O` equals 3.98 µM (active)

Potency reported for this compound `Cc1cc(C)nc(NNS(=O)(=O)c2ccc(F)c(Cl)c2)n1` : inactive

Per the records, this compound ( `C/C(=N\NC(=O)CSCc1ccc([N+](=O)[O-])cc1)c1ccccc1O` ) has Potency equal to inactive

Entry under test: O=C(Nc1cccc2ccccc12)OC1C=CS(=O)(=O)C1 (stereo not given) . Its Potency was inactive

// field: Potency; key: `CC(C)Nc1nc(-c2ccccn2)nc(-c2ccccc2)c1C#N` ; value = inactive

More entries:
The compound identified as `CCCNC(=O)c1ccc2c(=O)c(O)c(-c3ccc(C)cc3)[nH]c2c1` registered its Potency at inactive

For record `Cc1cc(N/N=C/c2ccccc2[N+](=O)[O-])nc(-n2nc(C)cc2C)n1` the listed Potency is 12.6 µM (active)

Briefly, Potency measured for CCCC1CCC(c2ccc(C(=O)NN)cc2)CC1 (stereo not given) : inactive

Potency for `Cc1ccc2c(CC(=O)NNC(=O)c3ccccc3O)coc2c1` is inactive

Entry Cc1cc(C)c(C(=O)N2CCCC(N3CCN(c4cccc(C(F)(F)F)c4)CC3)C2)o1 (stereo not given) — recorded Potency = inactive

From: PubChem BioAssay AID1745850
